system: P. aeruginosa PΔ3-Pore cells; assay: LC–MS quantification of intracellular accumulation, PΔ3-Pore; settings: 1 min incubation, 10-80 µM;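 also: slope of accumulation versus external concentration fitted as a line through zero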
Counter-ions that a name gives are not always drawn.
Each entry below lists one item and its recorded Concentration slopes of accumulation, PΔ3-Pore_1 min value.
# print the numeric value only

Some compounds with recorded Concentration slopes of accumulation, PΔ3-Pore_1 min:
# compound, numeric.value
records = [
    ("CC(CCc1ccccc1)NCC(O)c1ccc(O)c(C(N)=O)c1 (stereo not shown) [OU-0000748, Labetalol HCl]", 23.35),
    ("CN1C[C@H](C(=O)N[C@]2(C)O[C@@]3(O)[C@@H]4CCCN4C(=O)[C@H](Cc4ccccc4)N3C2=O)C=C2c3cccc4[nH]cc(c34)C[C@H]21 [OU-0000834, Ergotamine Tartrate]", 20.02),
    ("CC(C)NCC(O)c1ccc(NS(C)(=O)=O)cc1 (stereo not shown) [OU-0032507, Sotalol HCl]", 15.87),
]

Kindly review the next compound as well.
Request: Query: Concentration slopes of accumulation, PΔ3-Pore_1 min; subject: CCN1CCN(c2cc3c(cc2F)c(=O)c(C(=O)O)cn3C2CC2)CC1 [OU-0000620, ENROFLOXACIN]
Response: 26.71

====

test system: P. aeruginosa PAO1 cells; test: LC–MS quantification of intracellular accumulation, PAO1; conditions: 1 min incubation, 10-80 µM;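 also: slope of accumulation versus external concentration fitted as a line through zero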
Structures can show the parent of a compound that is named as a salt.
Think of 10 as a floor: if Concentration slopes of accumulation, PAO1_1 min stands on it or above, it is criterion met; beneath it, criterion not met.

# compound, class
data = [
    ("NC(N)=Nc1nc(CSCCC(N)=NS(N)(=O)=O)cs1", "criterion not met"),
    ("C[C@H]1COc2c(N3CCN(C)CC3)c(F)cc3c(=O)c(C(=O)O)cn1c23", "criterion not met"),
    ("CC(CCc1ccccc1)NCC(O)c1ccc(O)c(C(N)=O)c1 (centres unmarked) [OU-0000748, Labetalol HCl]", "criterion met"),
    ("COc1cnc(NS(=O)(=O)c2ccc(N)cc2)nc1", "criterion not met"),
    ("COc1ccc2cc1Oc1ccc(cc1)C[C@H]1c3cc(c(OC)cc3CCN1C)Oc1c(OC)c(OC)cc3c1[C@H](C2)N(C)CC3", "criterion not met"),
    ("O=C(c1ccc(OCCN2CCCCC2)cc1)c1c(-c2ccc(O)cc2)sc2cc(O)ccc12 [OU-0000741, Raloxifene HCl]", "criterion met"),
    ("CCN1CCN(c2cc3c(cc2F)c(=O)c(C(=O)O)cn3C2CC2)CC1", "criterion met"),
    ("CC[C@H]1CN2CCc3cc(OC)c(OC)cc3[C@@H]2C[C@@H]1C[C@H]1NCCc2cc(OC)c(OC)cc21.Cl.Cl [OU-0032504, Emetine DIHCl]", "criterion not met"),
]

Request: Kindly determine if Concentration slopes of accumulation, PAO1_1 min recorded for CC(Cc1ccc(O)cc1)NCC(O)c1cc(O)cc(O)c1 (centres unmarked) is above or exactly 10.
Response: criterion not met

Request: Kindly determine if Concentration slopes of accumulation, PAO1_1 min recorded for CC(C)(C)OC(=O)N1[C@H](CCC2CCCCC2)CNC(=O)[C@@H]1Cc1cc(F)cc(F)c1 is above or exactly 10.
Response: criterion met

Request: Kindly determine if Concentration slopes of accumulation, PAO1_1 min recorded for COc1c(N2CCNC(C)C2)c(F)cc2c(=O)c(C(=O)O)cn(C3CC3)c12 (centres unmarked) is above or exactly 10.
Response: criterion not met

Request: Kindly determine if Concentration slopes of accumulation, PAO1_1 min recorded for COc1cccc2c1C(=O)c1c(O)c3c(c(O)c1C2=O)C[C@@](O)(C(=O)CO)C[C@@H]3O[C@H]1C[C@H](N)[C@H](O)[C@H](C)O1 is above or exactly 10.
Response: criterion not met

Request: Kindly determine if Concentration slopes of accumulation, PAO1_1 min recorded for Cc1oc(=O)oc1CN1CCN(c2cc3c(cc2F)c(=O)c(C(=O)O)c2n3C(C)S2)CC1 (centres unmarked) is above or exactly 10.
Response: criterion met

Request: Kindly determine if Concentration slopes of accumulation, PAO1_1 min recorded for CN1C[C@H](C(=O)N[C@]2(C)O[C@@]3(O)[C@@H]4CCCN4C(=O)[C@H](Cc4ccccc4)N3C2=O)C=C2c3cccc4[nH]cc(c34)C[C@H]21 [OU-0000834, Ergotamine Tartrate] is above or exactly 10.
Response: criterion met
